tested on: GH3-TRE-Luc cell line; settings: read-out: AC50 (uM) modified / 1000; Tox21_110001=Tox21_110300; viability, 1 nM T3 present, 24 h
PROPERTY_MEASURED: CC50 (µM)
Give bare numbers, in µM.

Assay GH3-TRE-Luc cell line, sample COc1ccc(CCN(C)CCCC(C#N)(c2ccc(OC)c(OC)c2)C(C)C)cc1OC (stereo not shown) , CC50 read: 23.2

----------
assay: in vitro; settings: rat
Kindly state AC50 for each of the entries shown.
Give bare numbers, in µM.

CCCCCCCCCCCCn1cc[n+](C)c1.[I-] [1-Dodecyl-3-methylimidazolium iodide]
5.1

Now consider the entry below.
// field: AC50; key: c1cc(N(CC2CO2)CC2CO2)ccc1Cc1ccc(N(CC2CO2)CC2CO2)cc1 (stereo not drawn) ; value = 11.1
